These data points were gathered from patent US7074789B2.

Molecular target: Lck (Homo sapiens, UniProt P06239)
Construct: Kinases are expressed as either kinase domains or full length constructs; made in house
Sequence (P06239 whole entry, species assumed, the tested form may be a part): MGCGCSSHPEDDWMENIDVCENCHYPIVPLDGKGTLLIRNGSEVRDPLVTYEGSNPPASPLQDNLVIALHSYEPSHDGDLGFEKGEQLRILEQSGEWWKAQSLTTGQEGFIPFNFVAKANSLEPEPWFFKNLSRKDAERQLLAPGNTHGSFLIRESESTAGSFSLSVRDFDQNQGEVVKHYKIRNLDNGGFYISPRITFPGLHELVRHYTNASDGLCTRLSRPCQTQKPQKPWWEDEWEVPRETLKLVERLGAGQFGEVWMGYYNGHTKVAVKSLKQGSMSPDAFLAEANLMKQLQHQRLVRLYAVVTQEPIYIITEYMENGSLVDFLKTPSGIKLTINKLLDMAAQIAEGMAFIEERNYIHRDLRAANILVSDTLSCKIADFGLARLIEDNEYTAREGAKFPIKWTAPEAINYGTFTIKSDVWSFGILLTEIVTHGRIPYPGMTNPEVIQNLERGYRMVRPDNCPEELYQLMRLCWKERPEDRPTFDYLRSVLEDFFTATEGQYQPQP
Test: Kinase inhibition assay (33P transfer), Lck
Type: biochemical
Conditions: read-out: Lck-1
From the text: The inhibitor compounds described herein are screened in the following manner. […] Kinases are expressed as either kinase domains or full length constructs fused to glutathione S-transferase (GST) or polyHistidine tagged fusion proteins in either E. colior Baculovirus-High Five expression systems. […]
pIC50: −log10 of the molar value.
property_name: pIC50

Recorded results for 6 molecules are shown here.
>>> print(df.to_string())
                                   molecule  recorded_value
0  COc1cc(Nc2ncnc(Nc3ccc(NS(=O)(=O)c4ccc([N+](=O)[O-])cc4)cc3)n2)cc(OC)c1OC          > 6.14
1  COc1cc(Nc2ncnc(Nc3cc(-c4cccc(C(F)(F)F)c4)n[nH]3)n2)cc(OC)c1OC    5.31 to 6.09
2  COc1cc(Nc2ncnc(NC3CCc4ccccc43)n2)cc(OC)c1OC (centres unmarked)    5.21 to 5.99
3  COc1cc(Nc2ncnc(Nc3cc(-c4cccc(Cl)c4)n[nH]3)n2)cc(OC)c1OC    5.11 to 5.28
4  c1ccc(Cn2ncc3cc(Nc4ncnc(Nc5ccc(N6CCOCC6)cc5)n4)ccc32)cc1    5.30 to 6.08
5  COc1cc(Nc2ncnc(-n3c(NCc4cccc([N+](=O)[O-])c4)nc4ccccc43)n2)cc(OC)c1OC    5.34 to 6.12

Q. Requested field: pIC50. Item: `COc1cc(Nc2ncnc(-n3c(NCCCc4ccccc4)nc4ccccc43)n2)cc(OC)c1OC`
A. 5.06 to 5.16

Q. Look at this molecule and give its reported pIC50. `COc1cc(Nc2ncnc(Nc3cccc(CN4CCN(C)CC4)c3)n2)cc(OC)c1OC`
A. < 5.01

* * *

Molecular target: PDGFRB (Homo sapiens)
Construct: Kinases are expressed as either kinase domains or full length constructs; made in house
Sequence (P09619 33-1106, species assumed): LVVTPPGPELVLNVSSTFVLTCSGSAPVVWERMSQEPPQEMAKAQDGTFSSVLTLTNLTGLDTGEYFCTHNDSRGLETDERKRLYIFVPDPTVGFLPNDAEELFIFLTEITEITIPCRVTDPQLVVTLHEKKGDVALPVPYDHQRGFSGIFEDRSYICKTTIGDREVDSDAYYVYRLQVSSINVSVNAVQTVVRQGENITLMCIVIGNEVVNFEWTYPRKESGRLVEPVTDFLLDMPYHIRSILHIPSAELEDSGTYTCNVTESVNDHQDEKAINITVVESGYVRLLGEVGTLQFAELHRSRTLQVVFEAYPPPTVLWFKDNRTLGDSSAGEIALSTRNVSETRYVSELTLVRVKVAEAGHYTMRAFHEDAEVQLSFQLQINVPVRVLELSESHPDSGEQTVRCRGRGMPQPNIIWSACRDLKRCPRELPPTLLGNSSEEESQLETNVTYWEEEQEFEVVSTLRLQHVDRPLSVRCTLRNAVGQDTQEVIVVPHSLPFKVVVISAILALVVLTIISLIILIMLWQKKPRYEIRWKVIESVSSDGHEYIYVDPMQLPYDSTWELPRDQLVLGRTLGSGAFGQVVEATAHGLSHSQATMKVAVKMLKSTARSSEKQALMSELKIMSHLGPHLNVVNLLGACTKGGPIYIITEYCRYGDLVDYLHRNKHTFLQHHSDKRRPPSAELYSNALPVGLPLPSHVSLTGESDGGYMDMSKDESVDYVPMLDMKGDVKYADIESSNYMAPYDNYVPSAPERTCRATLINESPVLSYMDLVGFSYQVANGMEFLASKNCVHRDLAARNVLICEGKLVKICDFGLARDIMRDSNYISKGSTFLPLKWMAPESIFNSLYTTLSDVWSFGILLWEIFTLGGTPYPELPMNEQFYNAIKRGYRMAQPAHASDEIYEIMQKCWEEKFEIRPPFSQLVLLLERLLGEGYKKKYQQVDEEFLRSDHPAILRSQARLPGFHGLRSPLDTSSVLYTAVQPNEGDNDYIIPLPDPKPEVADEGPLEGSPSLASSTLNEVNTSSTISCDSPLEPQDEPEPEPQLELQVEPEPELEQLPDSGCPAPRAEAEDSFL
Test: Kinase inhibition assay (33P transfer), PDGFRB
Assay type: biochemical
Conditions: read-out: PDGFRB-1
pIC50: −log10 of the molar value.
The entries below come with measured pIC50 values attached.

Example cases with answers are listed next.
>>> df
                                   compound  recorded_value
0  Cc1ccc2c(c1)CCCN2c1ncnc(NCCCn2ccnc2)n1 [Compound 772]    4.89 to 5.00
1  CN(c1cccc(Cl)c1)c1ncnc(NCCOCCO)n1 [Compound 746]          < 4.86
2  COc1ccc([C@@H](C)Nc2nc3ccccc3n2-c2ncnc(Nc3cc(OC)c(OC)c(OC)c3)n2)cc1 [Compound 1045]    5.34 to 6.12

Q. I am curious: what pIC50 value has been reported for O=C(O)/C=C/c1ccc(Nc2ncnc(Nc3cc(-c4ccco4)[nH]n3)n2)cc1 [Compound 886] ?
A. < 4.94

Q. May I ask what pIC50 has been recorded for COc1cc(Nc2ncnc(-n3c(Nc4ccc(N(C)C)cc4)nc4ccccc43)n2)cc(OC)c1OC [Compound 1051] ?
A. 5.33 to 6.11

Q. Dear colleague, I am looking for the recorded pIC50 of the following compound: CCOc1cccc(Nc2ncnc(N3CCCc4cc(C)ccc43)n2)c1 [Compound 892]
A. > 5.96

Q. Entry under review: COc1ccc(Nc2ncnc(Nc3cc(Cl)cc(Cl)c3)n2)cc1OC [Compound 898] . Reported pIC50?
A. 4.94 to 5.05

Q. Param item = COc1ccc(Nc2ncnc(NCCCN3CCN(C)CC3)n2)cc1OC [Compound 786] ; retrieve measured pIC50.
A. < 4.94
